Origin of values: patent US8952024B2

Test system: barnyardgrass (Echinochloa crus-galli)
Procedure Text: Test A pre-/postemergence plant response
Assay type: in vivo
Protocol Conditions: Postemergence, 125 g ai/ha; 0 to 100 scale where 0 is no effect and 100 is complete control
Criterion: Plant response rating, Barnyardgrass strictly under 80. Met: satisfied. Not met: not satisfied.

Compound: Cc1ccccc1-c1ncc(C(=O)C2=C(O)CCCC2=O)c(=O)n1-c1ccccc1 [Compound 82]
Cat: satisfied
//
Compound: O=C1CCCC(O)=C1C(=O)c1cnc(-c2cccc(Cl)c2)n(CC2CCCO2)c1=O (centres unmarked) [Compound 142]
Cat: satisfied
//
Compound: CCCc1ncc(C(=O)C2=C(O)CCCC2=O)c(=O)n1Cc1ccccc1 [Compound 103]
Cat: satisfied
//
Compound: CCCn1c(-c2ccsc2)ncc(C(=O)C2=C(O)C3CCC(C3)C2=O)c1=O (centres unmarked) [Compound 227]
Cat: not satisfied
//
Compound: CCCn1c(-c2ccc3c(c2)OCCO3)ncc(C(=O)C2=C(O)CCCC2=O)c1=O [Compound 149]
Cat: satisfied
